Molecular target: MSI-1 RRM2-M1 (Homo sapiens, UniProt O43347 104-200, E180N)
Sequence (O43347 104-200 E180N): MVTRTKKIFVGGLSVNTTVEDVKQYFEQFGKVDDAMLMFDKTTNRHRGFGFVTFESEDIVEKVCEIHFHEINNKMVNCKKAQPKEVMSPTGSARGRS
Assay: SPR; NMR: 50 mM Tris-HCl, 140 mM NaCl, 1 mM EDTA, 1 mM protease inhibitors, pH 7.2 (RRM1: pH 7.5), 298 K; fluorescence quenching: 50 mM Tris pH 7.2, 140 mM NaCl, 1 mM EDTA; SPR: biotinylated RNA immobilised, buffer not in the material
Settings: protein: recombinant; label: biotin for SPR; single strand
Parameter: Kd (µM)
The figure you give is taken to be in µM; do not add the unit.

Fill in the blank: the reported Kd of UUGUCAGUUACCCCUU (ssRNA) [oligo-L2.1] is ____.
0.0586

Cited source for all entries: paper PMC12342889
